B1: Osa-1-4 twister ribozyme (parent)
chain: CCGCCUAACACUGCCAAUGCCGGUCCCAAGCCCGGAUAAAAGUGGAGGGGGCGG

Variants of: B1
Assay: self-cleavage, relative activity (ratio to wild type); higher = more cleavage; co-transcriptional
Label TRUE when self-cleavage >= 0.1; otherwise FALSE.

variant-key: A38U G23U
label-class: FALSE
//
variant-key: C21U G51U
label-class: TRUE
//
variant-key: A29G G22U
label-class: FALSE
//
variant-key: A36U C11G
label-class: TRUE
//
variant-key: A46C C21U
label-class: FALSE
//
variant-key: A17C G22U
label-class: FALSE
//
variant-key: C31U G45U
label-class: FALSE
//
variant-key: C15U C20U
label-class: TRUE
//
variant-key: A46G G30A
label-class: FALSE
//
variant-key: A17C G51C
label-class: TRUE
//
variant-key: A16C G35C
label-class: TRUE
//
variant-key: A7U G51A
label-class: FALSE
//
variant-key: A16G G35A
label-class: TRUE
//
variant-key: A46C U12C
label-class: FALSE
//
variant-key: C11U G34A
label-class: TRUE
//
variant-key: A17G G19A
label-class: TRUE
//
variant-key: A38U G45A
label-class: TRUE
//
variant-key: U18G U43G
label-class: TRUE
//
variant-key: C31G G49C
label-class: FALSE
//
variant-key: C52G G53U
label-class: TRUE
//
variant-key: A8G G45U
label-class: TRUE
//
variant-key: A36U A39C
label-class: TRUE
//
variant-key: C27U G23U
label-class: FALSE
//
variant-key: A38U A7G
label-class: TRUE
//
variant-key: A46C C27A
label-class: FALSE
//
variant-key: A46U U43A
label-class: FALSE
//
variant-key: C20U U12A
label-class: TRUE
//
variant-key: A41C C21A
label-class: TRUE
//
variant-key: A16G G45U
label-class: TRUE
//
variant-key: A28G C15A
label-class: FALSE
//
variant-key: C11U G22U
label-class: TRUE
//
variant-key: C27A G35C
label-class: FALSE
//
variant-key: C14A G49A
label-class: FALSE
//
variant-key: C32G U43C
label-class: FALSE
//
variant-key: A46C U37G
label-class: FALSE
//
variant-key: A10U G51C
label-class: FALSE
//
variant-key: C20A C9U
label-class: TRUE
//
variant-key: A16C G48C
label-class: FALSE
//
variant-key: C9A G23U
label-class: FALSE
//
variant-key: A10U A40U
label-class: FALSE
//
variant-key: A10G C52A
label-class: TRUE
//
variant-key: C25U G50U
label-class: TRUE
//
variant-key: G19U G45U
label-class: FALSE
//
variant-key: G19U G53U
label-class: FALSE
//
variant-key: A16C G54A
label-class: TRUE
//
variant-key: A29C U12C
label-class: FALSE
//
variant-key: C14A C32A
label-class: FALSE
//
variant-key: A10U G45A
label-class: FALSE
//
variant-key: C33A G48C
label-class: FALSE
//
variant-key: A41G A7U
label-class: FALSE
//
variant-key: C14U G13U
label-class: FALSE
//
variant-key: G49U G50A
label-class: TRUE
//
variant-key: G13A G54A
label-class: FALSE
//
variant-key: C52U G49C
label-class: FALSE
//
variant-key: A29U A39U
label-class: FALSE
//
variant-key: U12C U43G
label-class: FALSE
//
variant-key: G22C G51C
label-class: FALSE
//
variant-key: G19A U43C
label-class: TRUE
//
variant-key: A38G G53C
label-class: FALSE
//
variant-key: A41C G45A
label-class: TRUE
//
variant-key: A36U A39U
label-class: TRUE
//
variant-key: A46U C14A
label-class: FALSE
//
variant-key: C26A G35U
label-class: FALSE
//
variant-key: C31U U12G
label-class: TRUE
//
variant-key: A39U U12A
label-class: TRUE
//
variant-key: A39G G30C
label-class: FALSE
//
variant-key: A8C G50C
label-class: FALSE
//
variant-key: A7G G53C
label-class: FALSE
//
variant-key: A10G U37G
label-class: TRUE
//
variant-key: A10G C20U
label-class: TRUE
//
variant-key: G35A G45U
label-class: TRUE
//
variant-key: A36C U43A
label-class: TRUE
//
variant-key: A7U G35U
label-class: FALSE
//
variant-key: C52A U12A
label-class: TRUE
//
variant-key: G35A G44A
label-class: TRUE
//
variant-key: A36G G47A
label-class: TRUE
//
variant-key: A8U C14G
label-class: FALSE
//
variant-key: A10C C27U
label-class: FALSE
//
variant-key: A16U A29U
label-class: TRUE
//
variant-key: A28U G30U
label-class: FALSE
//
variant-key: A36U A41G
label-class: TRUE
//
variant-key: A16C C27A
label-class: TRUE
//
variant-key: G48U U37C
label-class: FALSE
//
variant-key: C31A C33G
label-class: FALSE
//
variant-key: A10U C26A
label-class: FALSE
//
variant-key: A7G C15U
label-class: FALSE
